Biological target: T1, Boi1, P38041
T1 sequence (P38041 1-86, looked up): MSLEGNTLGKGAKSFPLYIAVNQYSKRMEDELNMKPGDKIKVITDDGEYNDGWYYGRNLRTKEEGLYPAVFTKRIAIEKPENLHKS
Assay: SPOT array
Details: median of control spots 1162
READOUT TYPE: SPOT intensity

Would you please look over these solved cases?
• STKKPRPPVKSKPKH = 0
• MPAPPPPPPPPPGAF = 0
• SPLGAPPPPPHKDHL = 1

[A] VQKRKLPLPGSIASA
[B] RVTRKRPREPKSTND
Field: lower SPOT intensity | Options: A / B Identify your selection by its label.
A

[P] QTMRQAPKRPDADVA
[Q] TKIRRRPQQPLTDFT
Field: lower SPOT intensity | Options: P / Q Identify your selection by its label.
P
(P: 0, Q: 1)

[P] LKVTPGRRAPTISKI
[Q] NHSRSLFSLPGNQQS
[R] LKQRFFLMFPKSIIW
Put the entries in order of SPOT intensity, starting with the largest number. # output: labels, in the requested order
Q, R, P
(Q: 7, R: 2, P: 0)

[a] VTHRLRISIPGITGR
[b] SHRLWLYAAPKRPKT
[c] HRRRRVFSIPSLKSI
Put the entries in order of SPOT intensity, starting with the largest number. # output: labels, in the requested order
c, b, a
(c: 15, b: 1, a: 0)

The measurements presented in this section are drawn from paper PMC2756588.
